Would you kindly list MIC for each of these molecules?
- System: E. coli DH5α transformed with recombinant NDM-1 (pQE-2- NDM-1)
- TEST_DESCRIPTION: microbe, parasite or virus in culture
- Type: cell-based
- PROTOCOL_CONDITIONS: Escherichia coli, read-out: Minimum inhibitory concentration
Output spec: scalar in µg/mL, unitless text.

Provide only the value of recorded MIC for CC(C)(O/N=C(\C(=O)N[C@@H]1C(=O)N2C(C(=O)[O-])=C(C[n+]3ccccc3)CS[C@H]12)c1csc(N)n1)C(=O)O 8

Provide only the value of recorded MIC for CO[C@@]1(NC(=O)Cc2cccs2)C(=O)N2C(C(=O)O)=C(COC(N)=O)CS[C@@H]21 16

Provide only the value of recorded MIC for C[C@@H](O)[C@H]1C(=O)N2C(C(=O)O)=C(SCCN=CN)C[C@H]12 2

Provide only the value of recorded MIC for C[C@@H](O)[C@H]1C(=O)N2C(C(=O)O)=C(S[C@@H]3CN[C@H](C(=O)N(C)C)C3)[C@H](C)[C@H]12 2

###

- Tested on: original DH5α (with null vector) (pQE-2- Original)
- TEST_DESCRIPTION: microbe, parasite or virus in culture
- Format: cell-based, E. coli
- PROTOCOL_CONDITIONS: Escherichia coli, (pQE-2- Original) DH5α, read-out: Minimum inhibitory concentration
- Description: The MIC was determined for E. coli DH5α cells, E. coli DH5α cells with vector and E. coli DH5α cells with bla NDM-1 carrying vectors. […] We next assayed the activities of these drugs in combination with novel screened molecules. The MICs of four antibiotics were calculated (Table 4).
Would you kindly list MIC for each of these molecules?
Output spec: scalar in µg/mL, unitless text.

Provide only the value of recorded MIC for C[C@@H](O)[C@H]1C(=O)N2C(C(=O)O)=C(S[C@@H]3CN[C@H](C(=O)N(C)C)C3)[C@H](C)[C@H]12 0.5

Provide only the value of recorded MIC for C[C@@H](O)[C@H]1C(=O)N2C(C(=O)O)=C(SCCN=CN)C[C@H]12 0.5

Provide only the value of recorded MIC for CC(C)(O/N=C(\C(=O)N[C@@H]1C(=O)N2C(C(=O)[O-])=C(C[n+]3ccccc3)CS[C@H]12)c1csc(N)n1)C(=O)O 0.25

Provide only the value of recorded MIC for CO[C@@]1(NC(=O)Cc2cccs2)C(=O)N2C(C(=O)O)=C(COC(N)=O)CS[C@@H]21 2

###

- Tested on: E. coli DH5α transformed with recombinant NDM-1 (pQE-2- NDM-1)
- TEST_DESCRIPTION: microbe, parasite or virus in culture
- Format: cell-based
- PROTOCOL_CONDITIONS: bla NDM-1 clone; combined with M1, M17, M21, M61 or M75
PARAMETER: MIC of antibiotic when combined with each of the five molecules (µg/mL)
Output spec: scalar in µg/mL, unitless text.

Provide only the value of recorded MIC of antibiotic when combined with each of the five molecules for C[C@@H](O)[C@H]1C(=O)N2C(C(=O)O)=C(S[C@@H]3CN[C@H](C(=O)N(C)C)C3)[C@H](C)[C@H]12 1

Provide only the value of recorded MIC of antibiotic when combined with each of the five molecules for CO[C@@]1(NC(=O)Cc2cccs2)C(=O)N2C(C(=O)O)=C(COC(N)=O)CS[C@@H]21 8

Provide only the value of recorded MIC of antibiotic when combined with each of the five molecules for CC(C)(O/N=C(\C(=O)N[C@@H]1C(=O)N2C(C(=O)[O-])=C(C[n+]3ccccc3)CS[C@H]12)c1csc(N)n1)C(=O)O 4

Provide only the value of recorded MIC of antibiotic when combined with each of the five molecules for C[C@@H](O)[C@H]1C(=O)N2C(C(=O)O)=C(SCCN=CN)C[C@H]12 1
